Data origin: ChEMBL document CHEMBL1145782

# assayed-system: UniProtKB P06199
# procedure-text: Effective concentration required to inhibit dissociation of [3H]NMS from porcine heart ventricles muscarinic acetylcholine receptor M2.
readout-name: log10 of EC50 (log10 of the value in nM)
Hello, just confirming the data are log10 of EC50 with units of nM.

Answered examples (4):
{"smiles": "C[N+](C)(CCCCCC[N+](C)(C)CCCN1C(=O)c2cc(F)c(F)cc2C1=O)CCCN1C(=O)c2ccccc2C1=O", "log10 of EC50": 2.66}
{"smiles": "C[N+](C)(CCCCCC[N+](C)(C)CCCN1C(=O)c2ccccc2C1=O)CCCN1C(=O)c2ccccc2C1=O", "log10 of EC50": 3.13}
{"smiles": "Cc1ccc2c(c1)C(=O)N(CCC[N+](C)(C)CCCCCC[N+](C)(C)CC(C)(C)CN1C(=O)c3cccc4cccc(c34)C1=O)C2=O", "log10 of EC50": 0.88}
{"smiles": "C[N+](C)(CCCCCC[N+](C)(C)CCCN1C(=O)c2cc(Cl)c(Cl)cc2C1=O)CCCN1C(=O)c2ccccc2C1=O", "log10 of EC50": 2.06}

Reported log10 of EC50 of C[N+](C)(CCCCCC[N+](C)(C)CCCN1C(=O)c2cc(F)c(F)cc2C1=O)CCCN1C(=O)c2cc(F)c(F)cc2C1=O : 2.87

Reported log10 of EC50 of Cc1ccc2c(c1)C(=O)N(CCC[N+](C)(C)CCCCCC[N+](C)(C)CCCN1C(=O)c3ccc(C)cc3C1=O)C2=O : 2.23

Reported log10 of EC50 of Cc1ccc2c(c1)C(=O)N(CC(C)(C)C[N+](C)(C)CCCCCC[N+](C)(C)CC(C)(C)CN1C(=O)c3ccccc3C1=O)C2=O : 2.08

---

# assayed-system: Muscarinic acetylcholine receptor M2 (Sus scrofa)
# procedure-text: Cooperativity factor pAlpha at porcine heart ventricle muscarinic acetylcholine receptor M2.
Listed here: items and their measured pAlpha.
# answer = number (no unit)

Reported pAlpha of CC(C)(CN1C(=O)c2ccccc2C1=O)C[N+](C)(C)CCCCCC[N+](C)(C)CC(C)(C)CN1C(=O)c2ccccc2C1=O : -0.21

Reported pAlpha of Cc1ccc2c(c1)C(=O)N(CC(C)(C)C[N+](C)(C)CCCCCC[N+](C)(C)CCCN1C(=O)c3cccc4cccc(c34)C1=O)C2=O : -0.04

Reported pAlpha of C[N+](C)(CCCCCC[N+](C)(C)CCCN1C(=O)C2C3c4ccccc4C(c4ccccc43)C2C1=O)CCCN1C(=O)C2C3c4ccccc4C(c4ccccc43)C2C1=O (stereo not drawn) : -1.38

---

Listed here: items and their measured pAlpha.
# assayed-system: UniProtKB P06199
# Sequence (whole entry): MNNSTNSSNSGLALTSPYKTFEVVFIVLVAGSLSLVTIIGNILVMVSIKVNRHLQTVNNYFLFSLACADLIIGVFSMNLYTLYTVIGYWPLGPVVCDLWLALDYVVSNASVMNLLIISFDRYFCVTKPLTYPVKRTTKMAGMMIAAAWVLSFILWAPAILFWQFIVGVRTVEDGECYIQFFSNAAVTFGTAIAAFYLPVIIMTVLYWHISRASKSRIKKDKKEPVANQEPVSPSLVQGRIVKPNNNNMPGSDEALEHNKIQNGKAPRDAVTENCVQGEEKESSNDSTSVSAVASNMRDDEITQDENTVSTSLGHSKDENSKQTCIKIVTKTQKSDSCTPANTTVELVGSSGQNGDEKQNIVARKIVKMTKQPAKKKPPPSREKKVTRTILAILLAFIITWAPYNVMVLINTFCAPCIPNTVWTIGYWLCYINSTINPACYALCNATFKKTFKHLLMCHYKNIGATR
# procedure-text: Cooperativity factor pAlpha at porcine heart ventricle muscarinic acetylcholine receptor M2.
# answer = number (no unit)

Answered examples (3):
{"smiles": "C[N+](C)(CCCCCC[N+](C)(C)CCCN1C(=O)c2cc(F)c(F)cc2C1=O)CCCN1C(=O)c2ccccc2C1=O", "assayed-system": "UniProtKB P06199", "pAlpha": -0.37}
{"smiles": "CC(C)(CN1C(=O)c2ccccc2C1=O)C[N+](C)(C)CCCCCC[N+](C)(C)CCCN1C(=O)c2ccccc2C1=O", "assayed-system": "UniProtKB P06199", "pAlpha": -0.04}
{"smiles": "Cc1ccc2c(c1)C(=O)N(CCC[N+](C)(C)CCCCCC[N+](C)(C)CCCN1C(=O)c3ccccc3C1=O)C2=O", "assayed-system": "UniProtKB P06199", "pAlpha": -0.31}

Here is the next item to consider.
Reported pAlpha of CC(C)(CN1C(=O)c2cccc3cccc(c23)C1=O)C[N+](C)(C)CCCCCC[N+](C)(C)CCCN1C(=O)c2ccccc2C1=O : 0.37

---

# assayed-system: Muscarinic acetylcholine receptor M2 (Sus scrofa)
# procedure-text: Tested for binding of [3H]N-methylscopolamine ([3H]NMS) at porcine heart ventricle muscarinic acetylcholine receptor M2 expressed as -logKa.
Listed here: items and their measured -logKa.

{"smiles": "Cc1ccc2c(c1)C(=O)N(CCC[N+](C)(C)CCCCCC[N+](C)(C)CC(C)(C)CN1C(=O)c3ccccc3C1=O)C2=O", "-logKa": 7.2}

Here is the next item to consider.
Reported -logKa of Cc1ccc2c(c1)C(=O)N(CC(C)(C)C[N+](C)(C)CCCCCC[N+](C)(C)CC(C)(C)CN1C(=O)c3cccc4cccc(c34)C1=O)C2=O : 7.9

---

# assayed-system: Muscarinic acetylcholine receptor M2 (Sus scrofa)
# Sequence (whole entry): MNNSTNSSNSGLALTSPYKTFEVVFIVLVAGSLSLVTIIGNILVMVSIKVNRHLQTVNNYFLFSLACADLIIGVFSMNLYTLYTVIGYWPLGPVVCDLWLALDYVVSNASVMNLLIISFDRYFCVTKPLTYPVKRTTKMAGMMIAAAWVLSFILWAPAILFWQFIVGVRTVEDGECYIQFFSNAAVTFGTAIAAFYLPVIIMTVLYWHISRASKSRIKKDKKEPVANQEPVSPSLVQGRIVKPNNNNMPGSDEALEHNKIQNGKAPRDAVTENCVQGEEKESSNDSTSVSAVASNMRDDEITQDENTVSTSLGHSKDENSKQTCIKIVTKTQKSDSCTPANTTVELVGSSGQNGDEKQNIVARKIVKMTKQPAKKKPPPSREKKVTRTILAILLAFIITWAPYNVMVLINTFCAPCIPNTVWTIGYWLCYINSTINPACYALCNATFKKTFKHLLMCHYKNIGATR
# procedure-text: Tested for binding of [3H]N-methylscopolamine ([3H]NMS) at porcine heart ventricle muscarinic acetylcholine receptor M2 expressed as -logKa.
// boundary case: -logKa equal to 8 maps to not satisfied; strictly smaller maps to satisfied

{"compound": "CC(C)(CN1C(=O)c2cccc3cccc(c23)C1=O)C[N+](C)(C)CCCCCC[N+](C)(C)CCCN1C(=O)c2ccccc2C1=O [NAPHMETHONIUM]", "answer-label": "not satisfied"}
{"compound": "C[N+](C)(CCCCCC[N+](C)(C)CCCN1C(=O)c2ccc(C(F)(F)F)cc2C1=O)CCCN1C(=O)c2ccccc2C1=O", "answer-label": "satisfied"}
{"compound": "Cc1ccc2c(c1)C(=O)N(CC(C)(C)C[N+](C)(C)CCCCCC[N+](C)(C)CC(C)(C)CN1C(=O)c3ccccc3C1=O)C2=O", "answer-label": "satisfied"}

API: the following record is the query input.
Quick check: does C[N+](C)(CCCCCC[N+](C)(C)CCCN1C(=O)c2cc(F)c(F)cc2C1=O)CCCN1C(=O)c2cc(F)c(F)cc2C1=O have -logKa under 8?
satisfied

---

Listed here: items and their measured log10(EC50).
# assayed-system: Muscarinic acetylcholine receptor M2 (Sus scrofa, UniProt P06199)
# procedure-text: Effective concentration required to inhibit dissociation of [3H]NMS from porcine heart ventricles muscarinic acetylcholine receptor M2.
Hello, just confirming the data are log10 of EC50 with units of nM.

Answered examples (10):
{"smiles": "C[N+](C)(CCCCCC[N+](C)(C)CCCN1C(=O)c2ccc(C(F)(F)F)cc2C1=O)CCCN1C(=O)c2ccccc2C1=O", "log10(EC50)": 2.70}
{"smiles": "C[N+](C)(CCCCCC[N+](C)(C)CCCN1C(=O)c2ccc(C(F)(F)F)cc2C1=O)CCCN1C(=O)c2ccc(C(F)(F)F)cc2C1=O", "log10(EC50)": 2.65}
{"smiles": "Cc1ccc2c(c1)C(=O)N(CC(C)(C)C[N+](C)(C)CCCCCC[N+](C)(C)CCCN1C(=O)c3cccc4cccc(c34)C1=O)C2=O", "log10(EC50)": 1.56}
{"smiles": "CC(C)(CN1C(=O)c2cccc3cccc(c23)C1=O)C[N+](C)(C)CCCCCC[N+](C)(C)CCCN1C(=O)c2ccccc2C1=O", "log10(EC50)": 0.64}
{"smiles": "C[N+](C)(CCCCCC[N+](C)(C)CCCN1C(=O)c2cc3ccccc3cc2C1=O)CCCN1C(=O)c2cc3ccccc3cc2C1=O", "log10(EC50)": 2.31}
{"smiles": "Cc1ccc2c(c1)C(=O)N(CCC[N+](C)(C)CCCCCC[N+](C)(C)CC(C)(C)CN1C(=O)c3ccccc3C1=O)C2=O", "log10(EC50)": 1.85}
{"smiles": "C[N+](C)(CCCCCC[N+](C)(C)CCCN1C(=O)c2cccc3cccc(c23)C1=O)CCCN1C(=O)c2ccccc2C1=O", "log10(EC50)": 2.06}
{"smiles": "CC(C)(CN1C(=O)c2cccc3cccc(c23)C1=O)C[N+](C)(C)CCCCCC[N+](C)(C)CCCN1C(=O)c2cccc3cccc(c23)C1=O", "log10(EC50)": 0.89}
{"smiles": "CC(C)(CN1C(=O)c2ccccc2C1=O)C[N+](C)(C)CCCCCC[N+](C)(C)CCCN1C(=O)c2cccc3cccc(c23)C1=O", "log10(EC50)": 1.72}
{"smiles": "CC(C)(CN1C(=O)c2ccccc2C1=O)C[N+](C)(C)CCCCCC[N+](C)(C)CC(C)(C)CN1C(=O)c2cccc3cccc(c23)C1=O", "log10(EC50)": 1.27}

Case CC(C)(C)c1ccc2c(c1)C(=O)N(CCC[N+](C)(C)CCCCCC[N+](C)(C)CCCN1C(=O)c3ccccc3C1=O)C2=O , Muscarinic acetylcholine receptor M2 (Sus scrofa, UniProt P06199), log10(EC50) recorded as 2.49

Case C[N+](C)(CCCCCC[N+](C)(C)CCCN1C(=O)c2nccnc2C1=O)CCCN1C(=O)c2ccccc2C1=O , Muscarinic acetylcholine receptor M2 (Sus scrofa, UniProt P06199), log10(EC50) recorded as 3.21

Case C[N+](C)(CCCCCC[N+](C)(C)CCCN1C(=O)c2nccnc2C1=O)CCCN1C(=O)c2nccnc2C1=O , Muscarinic acetylcholine receptor M2 (Sus scrofa, UniProt P06199), log10(EC50) recorded as 3.80

Case C[N+](C)(CCCCCC[N+](C)(C)CCCN1C(=O)c2cc(Cl)c(Cl)cc2C1=O)CCCN1C(=O)c2cc(Cl)c(Cl)cc2C1=O , Muscarinic acetylcholine receptor M2 (Sus scrofa, UniProt P06199), log10(EC50) recorded as 2.36
